Attribution: patent US8993574B2

# System: Aspergillus flavus
# protocol-summary: MIC, RPMI medium
# Assay type: cell-based
# condition-set: Aspergillus flavus, MIC banded into grades, read-out: MIC grade, A. flavus
measured-attribute: MIC

Cc1cc(C)nc(N2CCN(c3ccc(NC(=O)C(=O)c4c(-c5ccccc5)cc5n4CCC5)cc3)CC2)c1 [Example 6] ... < 1 µg/mL

As a next step, examine the compound that follows.
### Prompt Find the measured MIC of C=C(C)CN1CCN(c2ccc(NC(=O)C(=O)c3c(-c4ccccc4)cc(C)n3CCOC)c(F)c2)CC1 [Example 109] and report it.
### Response < 1 µg/mL

====

# Test system: Aspergillus flavus
# protocol-summary: MIC, RPMI medium
# Format: cell-based
# condition-set: Aspergillus flavus, MIC banded into grades, read-out: MIC grade, A. flavus
measured-attribute: MIC

Example results:
Cc1cc(C)nc(N2CCN(c3ccc(NC(=O)C(=O)c4c(-c5ccccc5)cc(C)n4C)cc3COCCCN3CCOCC3)CC2)c1 ... > 10 µg/mL
Cc1cc(C)nc(N2CCN(c3ccc(NC(=O)C(=O)c4c(C(C)C)cc(C)n4C)cc3)CC2)c1 ... < 1 µg/mL
COCCn1ccc(CC(C)C)c1C(=O)C(=O)Nc1ccc(N2CCN(c3cc(C)cc(C)n3)CC2)cc1 ... > 10 µg/mL
Cc1cc(C)nc(N2CCN(c3ccc(NC(=O)C(=O)c4c(-c5ccccc5)cc(C)n4C)c(Cl)c3)CC2)c1 ... < 1 µg/mL
Cc1cc(C)nc(N2CCN(c3ccc(NC(=O)C(=O)c4c(-c5ccccc5)ccn4CCO)cc3)CC2)c1 ... > 10 µg/mL

### Prompt For the compound CCCCn1c(C)cc(-c2ccccc2)c1C(=O)C(=O)Nc1ccc(N2CCN(c3cc(C)cc(C)n3)CC2)cc1 , give its measured MIC value.
### Response < 1 µg/mL
